# targetOrSystem: human α1H T-type channels (Homo sapiens)
# Construct: expressed in transfected cells; host or cells: HEK 293
# Sequence (O95180 whole entry): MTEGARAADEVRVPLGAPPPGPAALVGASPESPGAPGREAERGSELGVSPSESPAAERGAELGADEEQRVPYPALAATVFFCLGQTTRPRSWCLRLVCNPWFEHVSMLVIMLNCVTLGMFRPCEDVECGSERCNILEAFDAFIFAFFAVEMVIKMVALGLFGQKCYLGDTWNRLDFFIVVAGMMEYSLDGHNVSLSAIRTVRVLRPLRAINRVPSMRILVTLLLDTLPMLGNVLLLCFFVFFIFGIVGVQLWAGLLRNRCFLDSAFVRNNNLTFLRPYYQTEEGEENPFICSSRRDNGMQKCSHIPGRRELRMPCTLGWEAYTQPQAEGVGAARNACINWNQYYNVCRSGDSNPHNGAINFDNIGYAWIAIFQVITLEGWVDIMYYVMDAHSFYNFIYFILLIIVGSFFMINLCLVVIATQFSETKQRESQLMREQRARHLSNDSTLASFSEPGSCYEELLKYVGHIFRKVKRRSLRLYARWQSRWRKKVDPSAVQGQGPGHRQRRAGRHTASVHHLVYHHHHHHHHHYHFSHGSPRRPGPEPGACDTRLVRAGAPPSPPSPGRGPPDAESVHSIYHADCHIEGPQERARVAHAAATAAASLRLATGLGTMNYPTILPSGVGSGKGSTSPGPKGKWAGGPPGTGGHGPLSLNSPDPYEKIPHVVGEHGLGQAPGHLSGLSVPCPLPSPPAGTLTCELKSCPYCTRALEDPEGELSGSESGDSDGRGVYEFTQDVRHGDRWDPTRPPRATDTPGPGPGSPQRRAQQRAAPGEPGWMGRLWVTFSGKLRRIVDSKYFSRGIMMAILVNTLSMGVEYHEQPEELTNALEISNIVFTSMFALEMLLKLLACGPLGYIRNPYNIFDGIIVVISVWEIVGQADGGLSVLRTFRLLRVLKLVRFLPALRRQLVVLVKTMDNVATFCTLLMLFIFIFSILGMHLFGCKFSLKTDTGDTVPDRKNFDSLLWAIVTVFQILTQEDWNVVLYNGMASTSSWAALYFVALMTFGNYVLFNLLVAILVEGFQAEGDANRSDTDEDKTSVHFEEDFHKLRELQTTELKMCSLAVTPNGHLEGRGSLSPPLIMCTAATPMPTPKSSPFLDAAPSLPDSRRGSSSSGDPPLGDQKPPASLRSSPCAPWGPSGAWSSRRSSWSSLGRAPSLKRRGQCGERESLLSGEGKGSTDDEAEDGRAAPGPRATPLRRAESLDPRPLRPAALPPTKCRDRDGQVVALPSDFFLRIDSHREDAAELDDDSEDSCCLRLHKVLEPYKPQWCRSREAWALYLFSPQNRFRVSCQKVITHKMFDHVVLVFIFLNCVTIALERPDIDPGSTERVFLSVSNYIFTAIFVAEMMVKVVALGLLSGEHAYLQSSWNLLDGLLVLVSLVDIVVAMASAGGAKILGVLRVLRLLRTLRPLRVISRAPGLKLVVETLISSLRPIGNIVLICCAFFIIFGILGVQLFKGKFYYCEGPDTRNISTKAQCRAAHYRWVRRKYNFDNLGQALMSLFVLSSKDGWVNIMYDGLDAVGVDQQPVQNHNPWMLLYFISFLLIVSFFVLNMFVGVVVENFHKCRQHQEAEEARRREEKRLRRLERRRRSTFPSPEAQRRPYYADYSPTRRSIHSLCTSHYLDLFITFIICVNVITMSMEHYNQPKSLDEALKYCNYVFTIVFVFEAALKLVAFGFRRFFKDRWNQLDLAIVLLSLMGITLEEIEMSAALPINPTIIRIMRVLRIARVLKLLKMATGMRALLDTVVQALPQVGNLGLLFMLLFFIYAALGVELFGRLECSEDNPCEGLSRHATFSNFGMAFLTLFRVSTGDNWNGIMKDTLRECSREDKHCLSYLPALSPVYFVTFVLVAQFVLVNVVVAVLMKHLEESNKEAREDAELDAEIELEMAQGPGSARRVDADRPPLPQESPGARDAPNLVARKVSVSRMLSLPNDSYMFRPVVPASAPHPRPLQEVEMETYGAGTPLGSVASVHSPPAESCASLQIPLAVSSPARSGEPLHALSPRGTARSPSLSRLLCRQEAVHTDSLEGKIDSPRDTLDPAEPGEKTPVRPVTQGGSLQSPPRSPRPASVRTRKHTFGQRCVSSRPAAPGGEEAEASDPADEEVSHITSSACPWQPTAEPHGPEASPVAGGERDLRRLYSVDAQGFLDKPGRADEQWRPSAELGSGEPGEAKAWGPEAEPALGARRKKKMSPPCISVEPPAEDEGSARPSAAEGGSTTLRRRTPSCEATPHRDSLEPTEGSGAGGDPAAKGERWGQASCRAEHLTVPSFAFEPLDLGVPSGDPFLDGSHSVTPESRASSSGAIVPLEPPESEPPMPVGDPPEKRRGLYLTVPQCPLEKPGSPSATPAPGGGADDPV
# experimentSummary: T-type calcium channel block, whole cell patch clamp in HEK cells (α1H)
# Format: cell-based
# studyConditions: HEK cells, patch clamp, mainly non-inactivated protocol; values above 10 μM shown as 10 μM; read-out: T-type Calcium Channel Block α1H IC50
# Method: T-type calcium channel blocking activity was assayed in human embryonic kidney cells, HEK 293, stably transfected with the T-type calcium channel subunits. […] Standard patch-clamp techniques were employed to identify blockers of T-type currents. […] Data were analyzed using Clampfit (Axon Instruments) and SigmaPlot 4.0 (Jandel Scientific). […]
Assign IC50 to each entry below.

**Q:** What does the data say about its IC50? Entry: O=C(CCC(F)(F)F)NCCN1CCC(CNC(=O)c2cccc(C(F)(F)F)c2)CC1 [Compound 313]
**A:** 620 nM

**Q:** Quick check: IC50 of Cc1cc(C)cc(C(=O)NCC2CCN(CC(=O)NC3(C)CCC3)CC2)c1 [Compound 475] ?
**A:** 170 nM

**Q:** // returns reported IC50 for input COc1cc(Cl)cc(C(=O)NCC2CCN(CCNC(=O)C3(C(F)(F)F)CC3)CC2)c1 [Compound 590]
**A:** 70 nM

**Q:** Query: IC50; subject: COc1cc(F)cc(C(=O)NCC2CCN(CC(=O)NC3CCCC3)CC2)c1 [Compound 532]
**A:** 130 nM

**Q:** Which IC50 value is on record for CN(CCN1CCC(CNC(=O)c2cc(F)cc(C(F)(F)F)c2)CC1)C(=O)C1(C)CC1 [Compound 518] ?
**A:** 810 nM

**Q:** # query: IC50 of entry COCCC(=O)NCCN1CCC(CNC(=O)c2cc(C(F)(F)F)cc(C(F)(F)F)c2)CC1 [Compound 68]
**A:** 7560 nM

**Q:** May I ask what IC50 has been recorded for CC(C)(C(=O)NCCN1CCC(CNC(=O)c2cc(F)cc(C(F)(F)F)c2)CC1)C(F)(F)F [Compound 339] ?
**A:** 130 nM

**Q:** Report IC50 for Cc1cc(C)cc(C(=O)NCC2CCN(CC(=O)NC(C)(C)C)CC2)c1 [Compound 362] please.
**A:** 170 nM

###

# targetOrSystem: hERG K+ channel (Homo sapiens, UniProt Q12809)
# Sequence (Q12809 whole entry): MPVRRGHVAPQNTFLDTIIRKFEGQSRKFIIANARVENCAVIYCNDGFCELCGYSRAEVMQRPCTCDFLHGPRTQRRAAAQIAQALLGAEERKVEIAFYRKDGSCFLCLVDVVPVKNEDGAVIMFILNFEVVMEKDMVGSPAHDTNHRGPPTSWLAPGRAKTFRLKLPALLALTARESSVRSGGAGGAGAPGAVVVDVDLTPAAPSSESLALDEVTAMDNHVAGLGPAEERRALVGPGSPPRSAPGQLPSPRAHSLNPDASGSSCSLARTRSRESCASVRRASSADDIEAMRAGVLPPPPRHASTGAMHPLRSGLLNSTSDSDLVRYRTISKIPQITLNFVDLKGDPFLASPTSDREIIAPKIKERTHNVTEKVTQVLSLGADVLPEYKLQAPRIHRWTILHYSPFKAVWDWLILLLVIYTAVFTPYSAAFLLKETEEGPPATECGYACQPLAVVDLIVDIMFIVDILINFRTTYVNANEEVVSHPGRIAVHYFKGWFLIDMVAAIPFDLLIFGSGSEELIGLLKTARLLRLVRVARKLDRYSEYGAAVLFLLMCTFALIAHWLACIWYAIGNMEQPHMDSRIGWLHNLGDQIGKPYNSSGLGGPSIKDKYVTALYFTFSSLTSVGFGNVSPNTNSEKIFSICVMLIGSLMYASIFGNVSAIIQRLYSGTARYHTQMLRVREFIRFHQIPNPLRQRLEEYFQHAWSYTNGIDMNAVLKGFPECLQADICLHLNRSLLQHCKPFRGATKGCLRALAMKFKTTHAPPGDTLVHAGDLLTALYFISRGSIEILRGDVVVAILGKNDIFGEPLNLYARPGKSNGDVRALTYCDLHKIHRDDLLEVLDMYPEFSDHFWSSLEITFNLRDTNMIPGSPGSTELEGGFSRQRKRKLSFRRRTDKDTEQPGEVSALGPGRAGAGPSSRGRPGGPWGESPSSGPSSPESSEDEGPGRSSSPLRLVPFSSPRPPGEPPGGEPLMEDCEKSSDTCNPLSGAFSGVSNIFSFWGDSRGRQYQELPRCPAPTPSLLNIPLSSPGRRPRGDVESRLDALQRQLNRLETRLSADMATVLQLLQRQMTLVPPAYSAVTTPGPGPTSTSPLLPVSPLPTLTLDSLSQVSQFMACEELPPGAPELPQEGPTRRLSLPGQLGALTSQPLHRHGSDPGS
# experimentSummary: hERG K+ Channel Block
# Format: cell-based
observationType: pIC50
// pIC50 is dimensionless: -log10 of concentration (M)

**Q:** GET /values?readout=pIC50&item= O=C(CN1CCC(CNC(=O)c2cc(F)cc(Cl)c2)CC1)NC1CCCC1 [Compound 531]
**A:** 5.62

**Q:** Value lookup for pIC50; key = O=C(NCC1CCN(CC(=O)N2CCC[C@H]2C(F)(F)F)CC1)c1cccc(OC(F)(F)F)c1 [Compound 471]
**A:** 5.64

**Q:** Would you kindly share the measured pIC50 for O=C(NCC1CCN(CCNC(=O)C2CC2)CC1)c1cc(C(F)(F)F)cc(C(F)(F)F)c1 [Compound 59] ?
**A:** 5.55

**Q:** Look up pIC50: CC(C)(NC(=O)CN1CCC(CNC(=O)c2cccc(OC(F)(F)F)c2)CC1)C(F)(F)F [Compound 462]
**A:** 5.39

**Q:** Please give the measured pIC50 for this compound: CN(C(=O)CN1CCC(CNC(=O)c2cc(F)cc(Cl)c2)CC1)C1(C)CCC1 [Compound 583]
**A:** 5.77

**Q:** # input compound: CC1(NC(=O)CN2CCC(CNC(=O)c3cc(F)cc(Cl)c3)CC2)CCC1 [Compound 482] ; wanted: its pIC50
**A:** 5.10

**Q:** # pIC50 lookup, item CC(C)(C(=O)NCCN1CCC(CNC(=O)c2cccc(Br)c2)CC1)C(F)(F)F [Compound 493]
**A:** 5.60

**Q:** Using the record for CC(C)(C)C(=O)NCCN1CCC(CC(=O)Nc2cc(C(F)(F)F)cc(C(F)(F)F)c2)CC1 [Compound 334] , report its pIC50.
**A:** 6.04

**Q:** Which pIC50 value belongs to COCC(C)(C)NC(=O)CN1CCC(CNC(=O)c2cc(F)cc(Cl)c2)CC1 [Compound 538] ?
**A:** 4.89

**Q:** Entry CC(C)(NC(=O)CN1CCC(CNC(=O)c2cc(F)cc(Cl)c2)CC1)C(F)(F)F [Compound 461] has what pIC50?
**A:** 5.13

**Q:** Look up pIC50 for this compound: O=C(CC1CCN(CC2(NS(=O)(=O)C3CC3)CCCC2)CC1)Nc1cc(C(F)(F)F)cc(C(F)(F)F)c1 [Compound 179]
**A:** 6.48

**Q:** Bench note: what pIC50 did O=C(NCC1CCN(CC(=O)N2CCC[C@H]2C(F)(F)F)CC1)c1cccc(Br)c1 [Compound 468] show?
**A:** 5.38

**Q:** What value of pIC50 has been recorded for this entry: CC(C)(C)NC(=O)CN1CCC(CNC(=O)c2cccc(OC(F)(F)F)c2)CC1 [Compound 375]
**A:** 5.06

**Q:** Which pIC50 is listed for CC(C)CS(=O)(=O)NCCN1CCC(CC(=O)Nc2cc(F)cc(C(F)(F)F)c2)CC1 [Compound 427] ?
**A:** 6.35

**Q:** Please look up its pIC50: O=C(CC1CCN(CC(O)C(F)(F)F)CC1)Nc1cc(C(F)(F)F)cc(C(F)(F)F)c1 (centres unmarked) [Compound 178]
**A:** 5.80

**Q:** For the compound shown here, CC(C)(C)C(O)CN1CCC(CC(=O)Nc2cc(C(F)(F)F)cc(C(F)(F)F)c2)CC1 (centres unmarked) [Compound 153] , give the reported pIC50.
**A:** 5.55

**Q:** I'd like to know its pIC50. The compound in question is CC(C)S(=O)(=O)NCCN1CCC(CC(=O)Nc2cc(Br)cc(C(F)(F)F)c2)CC1 [Compound 391]
**A:** 6.20

**Q:** Form field: reported pIC50 of O=C(NCC1CCN(CCNC(=O)C2(C(F)(F)F)CCC2)CC1)c1cc(F)cc(Cl)c1 [Compound 511]
**A:** 5.54

**Q:** Tell me the measured pIC50 of CS(=O)(=O)NC1(CN2CCC(CC(=O)Nc3cc(C(F)(F)F)cc(C(F)(F)F)c3)CC2)CCCC1 [Compound 160] , please.
**A:** 6.72

**Q:** Which pIC50 is listed for CC(C)(C(=O)NCCN1CCC(CNC(=O)c2cccc(C(F)(F)F)c2)CC1)C(F)(F)F [Compound 492] ?
**A:** 5.33

**Q:** Using the record for O=C(NCC1CCN(CCNC(=O)C2(C(F)(F)F)CC2)CC1)c1cc(F)cc(C(F)(F)F)c1 [Compound 343] , report its pIC50.
**A:** 5.21

**Q:** I would be grateful if you could share the reported pIC50 for O=C(NCC1CCN(CCNC(=O)C2(C(F)(F)F)CC2)CC1)c1cccc(C(F)(F)F)c1 [Compound 473] .
**A:** 5.66

**Q:** Entry under review: CC(C)(C)S(=O)(=O)NCCN1CCC(CNC(=O)c2cccc(OC(F)(F)F)c2)CC1 [Compound 574] . Reported pIC50?
**A:** 5.39

**Q:** Recorded pIC50 of CC(C)(C)NC(=O)CN1CCC(CNC(=O)c2cccc(Br)c2)CC1 [Compound 374] , please.
**A:** 5.11

**Q:** For O=C(NCC1CCN(CC(=O)N2CCC[C@H]2C(F)(F)F)CC1)c1cc(F)cc(Cl)c1 [Compound 470] , what is its reported pIC50?
**A:** 5.59

**Q:** Consider the compound shown here: COc1cc(F)cc(C(=O)NCC2CCN(CC(=O)N(C)C(C)(C)C(F)(F)F)CC2)c1 [Compound 581] What is its recorded pIC50?
**A:** 4.96

**Q:** Request the reported pIC50 associated with COc1cc(Cl)cc(C(=O)NCC2CCN(CCNC(=O)C3(C(F)(F)F)CC3)CC2)c1 [Compound 590]
**A:** 5.66

**Q:** # query: pIC50 of entry CC(C)(C)NC(=O)CN1CCC(CNC(=O)c2cccc(C(F)(F)F)c2)CC1 [Compound 371]
**A:** 4.83

**Q:** Item under review: CN(C(=O)CN1CCC(CNC(=O)c2cccc(C(F)(F)F)c2)CC1)C(C)(C)C [Compound 542] . Reported pIC50?
**A:** 5.19

**Q:** Could you tell me which pIC50 is on file for CN(C(=O)CN1CCC(CNC(=O)c2cccc(OC(F)(F)F)c2)CC1)C(C)(C)C [Compound 545] ?
**A:** 5.18

**Q:** Reported pIC50 for COc1cc(F)cc(C(=O)NCC2CCN(CCNC(=O)C3(C(F)(F)F)CC3)CC2)c1 [Compound 499] : what is it?
**A:** 4.95

**Q:** Would you mind telling me what pIC50 value was observed for O=C(NCC1CCN(CC(=O)N2CCC[C@H]2C(F)(F)F)CC1)c1cccc(Cl)c1 [Compound 469] ?
**A:** 5.02

These entries and their values trace back to patent US8569344B2.
